Source of measurements: ChEMBL document CHEMBL1131071

tested on: MDA-MB-435; experiment: Cytotoxicity against breast MDA-MB-435 cancer cell cultures.; assay type: functional; details: Homo sapiens
So I've got a bunch of molecules here, and I need their GI50 values.
Answers are plain numbers, in µM.

Worked set:
C[C@H]1CCC/C=C/[C@@H]2C[C@H](O)C[C@H]2[C@H](O)[C@H]([S+]([O-])CCO)CC(=O)O1 (some centres not stated)    0.09
C[C@H]1CCC/C=C/[C@@H]2C[C@H](O)C[C@H]2[C@H](O)[C@H](SCCN(C)C)CC(=O)O1    0.5
COc1ccc(S[C@@H]2CC(=O)O[C@@H](C)CCC/C=C/[C@@H]3C[C@H](O)C[C@H]3[C@@H]2O)cc1    19
C[C@H]1CCC/C=C/[C@@H]2C[C@H](O)C[C@H]2[C@H](O)C(O)C(O)C(=O)O1 (some centres not stated)    3.8

Noted for C[C@H]1CCC/C=C/[C@@H]2C[C@H](O)C[C@H]2[C@H](O)[C@H](SCC(O)CO)CC(=O)O1 (some centres not stated) : its GI50 reads 36

----------
test system: MDA-MB-435; assay: Cytotoxicity against breast MDA-MB-435 cancer cell cultures.; format: functional; settings: Homo sapiens
For each of the molecules below, state its GI50.
Give bare numbers, in µM.

C[C@H]1CCC/C=C/[C@@H]2C[C@H](O)C[C@H]2[C@H](O)[C@H]([S+]([O-])CC(N)C(=O)O)CC(=O)O1 (some centres undefined)    0.05
C[C@H]1CCC/C=C/[C@@H]2C[C@H](O)C[C@H]2[C@H](O)[C@H](Sc2ccc(O)cc2)CC(=O)O1    3.3
C[C@H]1CCC/C=C/[C@@H]2C[C@H](O)C[C@H]2[C@H](O)[C@H](SCC(=O)O)CC(=O)O1    42

Now let's try a different one.
Measured GI50 of C[C@H]1CCC/C=C/[C@@H]2C[C@H](O)C[C@H]2[C@H](O)[C@H](SCCN)CC(=O)O1 : 3.3

----------
Please respond with reported GI50 for every item in the list.
test system: HOP-62; assay: Cytotoxicity against lung HOP-62 cancer cell cultures.; assay type: functional; settings: Homo sapiens
Give bare numbers, in µM.

Reference set, count: 3
C[C@H]1CCC/C=C/[C@@H]2C[C@H](O)C[C@H]2[C@H](O)C(O)C(O)C(=O)O1 (stereo not given in full)    5
C[C@H]1CCC/C=C/[C@@H]2C[C@H](OC(=O)CCCC(=O)O)C[C@H]2[C@H](O)/C=C/C(=O)O1    33
COC(=O)CS[C@@H]1CC(=O)O[C@@H](C)CCC/C=C/[C@@H]2C[C@H](O)C[C@H]2[C@@H]1O    28

Measured GI50, C[C@H]1CCC/C=C/[C@@H]2C[C@H](O)C[C@H]2[C@H](O)[C@H](SCC(O)CO)CC(=O)O1 (stereo not given in full) : 33

----------
test system: HOP-62; assay: Cytotoxicity against lung HOP-62 cancer cell cultures.; format: functional; conditions: Homo sapiens
reported_metric: GI50 (µM)
Numbers only, in µM.

Record excerpt, results attached:
C[C@H]1CCC/C=C/[C@@H]2C[C@H](O)C[C@H]2[C@H](O)[C@H]([S+]([O-])c2ccc(O)cc2)CC(=O)O1 (some centres undefined)    0.088
COc1ccc(S[C@@H]2CC(=O)O[C@@H](C)CCC/C=C/[C@@H]3C[C@H](O)C[C@H]3[C@@H]2O)cc1    24
C[C@H]1CCC/C=C/[C@@H]2C[C@H](O)C[C@H]2[C@H](O)[C@H](Sc2ccc(O)cc2)CC(=O)O1    3.2
C[C@H]1CCC/C=C/[C@@H]2C[C@H](O)C[C@H]2[C@H](O)[C@H](SCCN(C)C)CC(=O)O1    0.54

Lab note: each molecule below needs its GI50 filled in.
1. C[C@H]1CCC/C=C/[C@@H]2C[C@H](O)C[C@H]2[C@H](O)[C@H]([S+]([O-])CCN)CC(=O)O1 (some centres undefined)
2. C[C@H]1CCC/C=C/[C@@H]2C[C@H](O)C[C@H]2[C@H](O)[C@H](SCCN)CC(=O)O1
3. C[C@H]1CCC/C=C/[C@@H]2C[C@H](O)C[C@H]2[C@H](O)[C@H](SCC(=O)O)CC(=O)O1
4. COC(=O)CS(=O)(=O)[C@@H]1CC(=O)O[C@@H](C)CCC/C=C/[C@@H]2C[C@H](O)C[C@H]2[C@@H]1O
5. C[C@H]1CCC/C=C/[C@@H]2C[C@H](O)C[C@H]2[C@H](O)[C@H]([S+]([O-])CCN(C)C)CC(=O)O1 (some centres undefined)

0.15
3.9
30
5.1
0.35

Field: GI50. Fill in for each record below.
1. C[C@H]1CCC/C=C/[C@@H]2C[C@H](O)C[C@H]2[C@H](O)[C@H]([S+]([O-])CC(N)C(=O)O)CC(=O)O1 (some centres undefined)
2. C[C@H]1CCC/C=C/[C@@H]2C[C@H](O)C[C@H]2[C@H](O)[C@H](SCCO)CC(=O)O1
3. C[C@H]1CCC/C=C/[C@@H]2C[C@H](O)C[C@H]2[C@H](O)[C@H]([S+]([O-])CCO)CC(=O)O1 (some centres undefined)
4. C[C@H]1CCC/C=C/[C@@H]2C[C@H](OC(=O)CCC(=O)O)C[C@H]2[C@H](O)/C=C/C(=O)O1

0.7
34
0.29
3.4
